- test: Tissue distribution study after intravenous administration
- Assay type: in vivo, Sprague-Dawley rats
- condition_parameters: Sprague-Dawley, rat, iv; Kidney, 0.5 h, rats, i.v. 5 mg/kg, n = 5
recorded_metric: Kp at 0.5 h

Challenge: Give recorded Kp at 0.5 h. O=C(/C=C/C=C/c1ccccc1)CCc1ccccc1
Response given: 0.58

###

- test: Tissue distribution study after intravenous administration
- Assay type: in vivo, Sprague-Dawley rats
- condition_parameters: Sprague-Dawley, rat, iv; Lung, 2 h, rats, i.v. 5 mg/kg, n = 5
recorded_metric: Kp at 2 h
Just the number, please, no unit attached.

Challenge: Give recorded Kp at 2 h. O=C(/C=C/C=C/c1ccccc1)CCc1ccccc1
Response given: 4.55

###

- test: Tissue distribution study after intravenous administration
- Assay type: in vivo, Sprague-Dawley rats
- condition_parameters: Sprague-Dawley, rat, iv; Stomach, 0.5 h, rats, i.v. 5 mg/kg, n = 5
recorded_metric: Kp at 0.5 h
Just the number, please, no unit attached.

Challenge: Give recorded Kp at 0.5 h. O=C(/C=C/C=C/c1ccccc1)CCc1ccccc1
Response given: 0.64

###

- test: Tissue distribution study after intravenous administration
- Type: in vivo, Sprague-Dawley rats
- condition_parameters: Sprague-Dawley, rat, iv; Intestine, 0.5 h, rats, i.v. 5 mg/kg, n = 5
recorded_metric: Kp at 0.5 h
Just the number, please, no unit attached.

Challenge: Give recorded Kp at 0.5 h. O=C(/C=C/C=C/c1ccccc1)CCc1ccccc1
Response given: 0.39
